Sourced from ChEMBL document CHEMBL5356996

molecular target: NACHT, LRR and PYD domains-containing protein 3 (Homo sapiens); experiment: Inhibition of NLRP3 in LPS/nigericin-induced human THP-1 cells assessed as inhibition of IL-1beta production pretreated with LPS for 3 hrs followed by incubation with compound for 15 mins and later stimulated with nigericin for 90 mins by AlphaLISA assay; format: cell-based
Sequence (Q96P20 whole entry, the tested form may be a part): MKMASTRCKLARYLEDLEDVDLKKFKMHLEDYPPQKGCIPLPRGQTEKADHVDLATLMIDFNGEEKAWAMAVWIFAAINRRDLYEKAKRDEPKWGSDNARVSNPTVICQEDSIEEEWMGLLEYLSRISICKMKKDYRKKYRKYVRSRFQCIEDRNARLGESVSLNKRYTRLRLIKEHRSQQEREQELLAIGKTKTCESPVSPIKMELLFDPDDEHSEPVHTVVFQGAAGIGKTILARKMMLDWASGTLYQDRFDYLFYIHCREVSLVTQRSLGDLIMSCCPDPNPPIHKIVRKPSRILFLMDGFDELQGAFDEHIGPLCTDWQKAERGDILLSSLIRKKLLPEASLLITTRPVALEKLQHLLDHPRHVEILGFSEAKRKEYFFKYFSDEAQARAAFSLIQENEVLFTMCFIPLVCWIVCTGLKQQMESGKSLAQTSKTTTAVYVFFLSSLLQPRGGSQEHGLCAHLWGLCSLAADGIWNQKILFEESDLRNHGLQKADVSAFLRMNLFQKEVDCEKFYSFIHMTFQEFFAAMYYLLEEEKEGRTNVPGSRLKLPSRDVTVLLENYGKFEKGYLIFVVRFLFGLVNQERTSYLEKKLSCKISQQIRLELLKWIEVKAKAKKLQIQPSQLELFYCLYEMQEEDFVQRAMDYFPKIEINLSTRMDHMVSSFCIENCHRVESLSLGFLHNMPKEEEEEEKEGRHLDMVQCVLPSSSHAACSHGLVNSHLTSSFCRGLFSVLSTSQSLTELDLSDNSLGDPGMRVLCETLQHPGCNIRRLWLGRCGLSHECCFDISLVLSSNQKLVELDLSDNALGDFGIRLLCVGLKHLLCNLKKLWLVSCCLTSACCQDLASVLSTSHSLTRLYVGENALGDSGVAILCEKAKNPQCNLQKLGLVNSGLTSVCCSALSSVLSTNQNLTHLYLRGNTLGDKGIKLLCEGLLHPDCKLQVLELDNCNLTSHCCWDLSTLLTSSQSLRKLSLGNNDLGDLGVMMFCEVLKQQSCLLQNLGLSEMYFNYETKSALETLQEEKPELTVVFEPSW
Listing: IC50 of selected compounds
Numeric answer only, unit µM assumed.

// worked examples, IC50 included
compound: CCOC(=O)c1nnc(Nc2c3c(cc4c2CCC4)CCC3)o1
readout units: µM
IC50: 8.9
//
compound: CS(=O)(=O)NC(=O)c1cnc(Nc2c3c(cc4c2CCC4)CCC3)o1
readout units: µM
IC50: 6.8
//
compound: Cc1ccc(C(C)C)cc1Nc1nc(C(=O)NS(=O)(=O)N(C)C)co1
readout units: µM
IC50: 0.14

query: Write IC50 of O=C(O)c1cnc(Nc2c3c(cc4c2CCC4)CCC3)o1 ; system used: NACHT, LRR and PYD domains-containing protein 3 (Homo sapiens)
result: 2.4

query: Write IC50 of Cc1ccc(C(F)(F)F)cc1Nc1nc(C(=O)NS(=O)(=O)N2CCOCC2)co1 ; system used: NACHT, LRR and PYD domains-containing protein 3 (Homo sapiens)
result: 0.038

query: Write IC50 of Cc1ccc(C)c(Nc2nc(C(=O)NS(=O)(=O)N(C)C)co2)c1 ; system used: NACHT, LRR and PYD domains-containing protein 3 (Homo sapiens)
result: 0.51
